Sourced from paper PMC9482650

# target: DLG4_1, P78352
# Sequence (P78352 62-152): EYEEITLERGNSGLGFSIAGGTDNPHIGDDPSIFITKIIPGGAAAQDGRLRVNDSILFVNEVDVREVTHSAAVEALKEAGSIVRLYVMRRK
# assay.summary: holdup assay
# Set-up: key: below the threshold = too weak to quantify, mostly under pKd 3.1 to 4
# condition.summary: plain residues with an end cap or a label only (N-terminal biotin on a linker: ado-ado)
measured.quantity: pKd

binder="GNDPDRGTSI [GRID2, O43424]" experimental_result="below the threshold"
binder="SQDPKKPSRV [CBY2, Q8NA61]" experimental_result=3.66
binder="MLPANYVEAI [NEB, P20929]" experimental_result="below the threshold"
binder="GQNMTVSVVI [PRLHR, P49683]" experimental_result="below the threshold"
binder="RSPVATATSC [DUSP5, Q16690]" experimental_result="below the threshold"
